Target: IRAK4 (Homo sapiens)
Construct: 293Tcells expressing HiBiT-tagged IRAK4 were then added into 384-well plates
Assay: IRAK4 Degradation Assay, HiBiT Method
Format: cell-based
Conditions: 293T cells expressing HiBiT-tagged IRAK4, 6 hours
Readout Name: DC50

- Compound: "CC(C)Oc1cc2nc(C3CCN(C(=O)CN4CCC(c5cnc(NC6CCC(=O)NC6=O)nc5)CC4)CC3)cn2cc1C(=O)Nc1cccc(C(F)F)n1 (stereo not drawn)"
  Readout Name: "DC50"
  Measurement: "10 to 100 nM"
- Compound: "CC(C)Oc1cc2nc([C@H]3CC[C@H](CN4CCC(c5ccc(NC6CCC(=O)NC6=O)cn5)CC4)CC3)cn2cc1C(=O)Nc1cccc(C(F)F)n1 (stereo partly drawn)"
  Readout Name: "DC50"
  Measurement: "10 to 100 nM"
- Compound: "CC(C)Oc1cc2nc([C@H]3CC[C@H](CN4CCC(c5cccc6c5n(C)c(=O)n6C5CCC(=O)NC5=O)CC4)CC3)cn2cc1C(=O)Nc1cccc(C(F)F)n1 (stereo partly drawn)"
  Readout Name: "DC50"
  Measurement: "10 to 100 nM"
- Compound: "CC(C)Oc1cc2nc([C@H]3CC[C@H](CN(C)C4CCN(c5cccc(NC6CCC(=O)NC6=O)c5)CC4)CC3)cn2cc1C(=O)Nc1cccc(C(F)F)n1 (stereo partly drawn)"
  Readout Name: "DC50"
  Measurement: "10 to 100 nM"
- Compound: "CC(C)Oc1cc2nn(C3CCN(C(=O)CC4(O)CCN(c5ncc(C6CCC(=O)NC6=O)cc5F)CC4)CC3)cc2cc1C(=O)Nc1cccn([C@H]2C[C@H]2F)c1=O (stereo partly drawn)"
  Readout Name: "DC50"
  Measurement: "< 10 nM"
- Compound: "CC(C)Oc1cc2nc(C3CCC(CN4CCC(c5ccc(C6CCC(=O)NC6=O)cc5)CC4)CC3)cn2cc1C(=O)Nc1cccc(C(F)F)n1 (stereo not drawn)"
  Readout Name: "DC50"
  Measurement: "10 to 100 nM"
- Compound: "CC(C)Oc1cc2nc([C@H]3CC[C@H](CN(C)C4CCN(c5cccc(C6CCC(=O)NC6=O)c5)CC4)CC3)cn2cc1C(=O)Nc1cccc(C(F)F)n1 (stereo partly drawn)"
  Readout Name: "DC50"
  Measurement: "10 to 100 nM"
- Compound: "CC(C)Oc1cc2nn(C3CCN(C(=O)CN4CCC(c5ccc(C6CCC(=O)NC6=O)cc5)CC4)CC3)cc2cc1C(=O)Nc1cnn2cccnc12 (stereo not drawn)"
  Readout Name: "DC50"
  Measurement: "< 10 nM"
- Compound: "CC(C)Oc1cc2nn(C3CCN(C(=O)CC4CCN(c5ccc(C6CCC(=O)NC6=O)cn5)CC4)CC3)cc2cc1C(=O)Nc1cnn2cccnc12 (stereo not drawn)"
  Readout Name: "DC50"
  Measurement: "< 10 nM"
- Compound: "CC(C)Oc1cc2nc([C@H]3CC[C@](F)(CN4CCC(c5ccc6c(c5)n(C)c(=O)n6C5CCC(=O)NC5=O)CC4)CC3)cn2cc1C(=O)Nc1cccn([C@H]2C[C@H]2F)c1=O (stereo partly drawn)"
  Readout Name: "DC50"
  Measurement: "10 to 100 nM"
- Compound: "CC(C)Oc1cc2nc(C3CCN(CC(=O)N4CCC(c5ccc(C6CCC(=O)NC6=O)cc5)CC4)CC3)cn2cc1C(=O)Nc1cnn2cccnc12 (stereo not drawn)"
  Readout Name: "DC50"
  Measurement: "10 to 100 nM"
- Compound: "CC(C)Oc1cc2nc(C3CCN(CC(=O)N4CCC(c5ccc(NC6CCC(=O)NC6=O)cc5)CC4)CC3)cn2cc1C(=O)Nc1ccn(C)n1 (stereo not drawn)"
  Readout Name: "DC50"
  Measurement: "10 to 100 nM"

###

Test: Pharmacokinetics in Male Cynomolgus Monkeys
Type: in vivo
Settings: cynomolgus monkey, 5 mg/kg IV, plasma, mean (Table 11), read-out: Vdss

- Compound: "CC(C)Oc1cc2nc([C@H]3CC[C@H](CN4CCC(c5ccc6c(c5)n(C)c(=O)n6C5CCC(=O)NC5=O)CC4)CC3)cn2cc1C(=O)Nc1cccn([C@H]2C[C@H]2F)c1=O (stereo partly shown)"
  Display Unit: "L/kg"
  Vd: 32.6

###

Some compounds, each annotated with its measured DC50.
Biological target: IRAK4 (Homo sapiens)
Construct: 293Tcells expressing HiBiT-tagged IRAK4 were then added into 384-well plates
Test: IRAK4 Degradation Assay, HiBiT Method
Assay type: cell-based
Settings: 293T cells expressing HiBiT-tagged IRAK4, 6 hours
Method: Assay 1. IRAK4 Degradation Assay, HiBiT Method Selected compounds were tested in an IRAK4 degradation assay using the HiBiT Method. Phenol red-free Dulbecco's modified Eagle medium (DMEM) and fetal bovine serum (FBS) were purchased from Gibco (Grand Island, NY, USA). […] IRAK4 degradation was measured via the quantification of luminescent signals using the Nano-Glo® HiBiT Lytic Assay kit. […] Luminescence was acquired using an EnVision™ Multilabel Reader (PerkinElmer, Santa Clara, CA, USA).

- Compound: "CC(C)Oc1nc2nc(C3CCN(C(=O)N(C)C4CCN(c5ncc(C6CCC(=O)NC6=O)cc5F)CC4)CC3)cn2cc1C(=O)Nc1cccn([C@H]2C[C@H]2F)c1=O (stereo partly drawn)"
  DC50: "10 to 100 nM"
- Compound: "Cc1cnc2c(NC(=O)c3cn4cc([C@H]5CC[C@H](CN6CCC(c7ccc8c(c7)n(C)c(=O)n8C7CCC(=O)NC7=O)CC6)CC5)nc4cc3OC(C)C)cnn2c1 (stereo partly drawn)"
  DC50: "< 10 nM"
- Compound: "CC(C)Oc1cc2nc(C3CCN(C(=O)CC4CCN(c5ccc(C6CCC(=O)NC6=O)cn5)CC4)CC3)cn2cc1C(=O)Nc1cnn2cccnc12 (stereo not drawn)"
  DC50: "< 10 nM"

###

Biological target: IRAK4 (Homo sapiens, UniProt Q9NWZ3)
Construct: 293Tcells expressing HiBiT-tagged IRAK4 were then added into 384-well plates
Sequence (Q9NWZ3 whole entry): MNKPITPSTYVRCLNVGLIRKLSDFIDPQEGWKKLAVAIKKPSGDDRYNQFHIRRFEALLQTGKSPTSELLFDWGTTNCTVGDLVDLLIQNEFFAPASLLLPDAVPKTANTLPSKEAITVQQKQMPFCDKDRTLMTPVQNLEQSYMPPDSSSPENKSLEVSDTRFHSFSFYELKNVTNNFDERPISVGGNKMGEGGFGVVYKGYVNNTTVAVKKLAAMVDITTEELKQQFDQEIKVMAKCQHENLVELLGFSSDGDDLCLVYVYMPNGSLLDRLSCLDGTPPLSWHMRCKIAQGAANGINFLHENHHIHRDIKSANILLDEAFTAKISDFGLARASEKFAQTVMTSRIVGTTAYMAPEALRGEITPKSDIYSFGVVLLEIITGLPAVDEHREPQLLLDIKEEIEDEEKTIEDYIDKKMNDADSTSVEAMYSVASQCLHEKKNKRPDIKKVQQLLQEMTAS
Test: IRAK4 Degradation Assay, HiBiT Method
Assay type: cell-based
Conditions: 293T cells expressing HiBiT-tagged IRAK4, 6 hours
Some molecules, each annotated with its measured DC50.

- Molecule: "CC(C)Oc1cc2nn([C@H]3CC[C@H](CN4CCC(c5ccc6c(c5)n(C)c(=O)n6C5CCC(=O)NC5=O)C(F)(F)C4)CC3)cc2cc1C(=O)Nc1cnn2cccnc12 (stereo partly shown)"
  DC50: "< 10 nM"
- Molecule: "CC(C)Oc1cc2nc(C3CCN(C(=O)CN4CCC(c5cc(F)c(C6CCC(=O)NC6=O)cc5F)CC4)CC3)cn2cc1C(=O)Nc1cccc(C(F)F)n1 (stereo not shown)"
  DC50: "10 to 100 nM"
- Molecule: "CC(C)Oc1cc2nc([C@H]3CC[C@H](CN4CCC(c5ccc6c(c5)n(C)c(=O)n6C5CCC(=O)NC5=O)CC4)CC3)cn2cc1C(=O)Nc1cnn2cccnc12 (stereo partly shown)"
  DC50: "< 10 nM"
- Molecule: "CC(C)Oc1cc2nc([C@H]3CC[C@H](CN4CCC(c5ccc(NC6CCC(=O)NC6=O)cc5)C(F)(F)C4)CC3)cn2cc1C(=O)Nc1cccc(C(F)F)n1 (stereo partly shown)"
  DC50: "100 to 500 nM"
- Molecule: "CC(C)Oc1cc2nn(C3CCN(C(=O)CC4(O)CCN(c5ccc(NC6CCC(=O)NC6=O)cc5)CC4)CC3)cc2cc1C(=O)Nc1cccc(C(F)F)n1 (stereo not shown)"
  DC50: "10 to 100 nM"
- Molecule: "CC(C)Oc1cc2nn([C@H]3CC[C@H](CN[C@@H]4CC[C@H](c5ccc6c(N7CCC(=O)NC7=O)nn(C)c6c5)[C@H](O)C4)CC3)cc2cc1C(=O)Nc1cccn([C@H]2C[C@H]2F)c1=O"
  DC50: "< 10 nM"
- Molecule: "CC(C)Oc1cc2nn([C@H]3CC[C@H](CN4CCOC[C@H]4Cc4ccc(OC5CCC(=O)NC5=O)cc4)CC3)cc2cc1C(=O)Nc1cccn([C@H]2C[C@H]2F)c1=O (stereo partly shown)"
  DC50: "< 10 nM"
- Molecule: "CC(C)Oc1cc2nn(C3CCN(C(=O)CC4CCN(c5ncc(C6CCC(=O)NC6=O)cc5F)CC4)CC3)cc2cc1C(=O)Nc1cccn([C@H]2C[C@H]2F)c1=O (stereo partly shown)"
  DC50: "< 10 nM"
- Molecule: "CC(C)Oc1cc2nc(C3CCN(CC(=O)N4CCC(c5ccc(C6(F)CCC(=O)NC6=O)cc5)CC4)CC3)cn2cc1C(=O)Nc1cnn2cccnc12 (stereo not shown)"
  DC50: "10 to 100 nM"
- Molecule: "CC(C)Oc1cc2nc([C@H]3CC[C@H](CN4CCC(c5ccc(C6CCC(=O)NC6=O)cc5)CC4)CC3)cn2cc1C(=O)Nc1cccc(C(F)(F)F)n1 (stereo partly shown)"
  DC50: "500 to 1000 nM"
- Molecule: "CC(C)Oc1cc2nn(C3CCN(C(=O)CN4CCC(c5ccc(C6CCC(=O)NC6=O)cc5F)CC4)CC3)cc2cc1C(=O)Nc1cccc(C(F)F)n1 (stereo not shown)"
  DC50: "10 to 100 nM"
- Molecule: "CC(C)Oc1cc2nc(C3CCN(C(=O)CCCCNc4ccc(C5CCC(=O)NC5=O)cn4)CC3)cn2cc1C(=O)Nc1cccn([C@H]2C[C@H]2F)c1=O (stereo partly shown)"
  DC50: "10 to 100 nM"
- Molecule: "CC(C)Oc1cc2nc(C3CCN(C(=O)CN4CCC(c5ccc(C6CCC(=O)NC6=O)cc5)CC4)CC3)cn2cc1C(=O)Nc1cccc(C(F)F)n1 (stereo not shown)"
  DC50: "10 to 100 nM"
- Molecule: "CC(C)Oc1cc2nc(C3CCN(C(=O)CN4CCC(c5cc(F)c(C6CCC(=O)NC6=O)cc5F)CC4)CC3)cn2cc1C(=O)Nc1cnn2cccnc12 (stereo not shown)"
  DC50: "10 to 100 nM"
- Molecule: "CC(C)Oc1cc2nc(C3CCN(CC(=O)N4CCC(c5ccc(NC6CCC(=O)NC6=O)cc5)CC4)CC3)cn2cc1C(=O)Nc1cccc(C(F)(F)F)c1 (stereo not shown)"
  DC50: "100 to 500 nM"
- Molecule: "CC(C)Oc1cc2nn(C3CCN(C(=O)CN4CCC(c5ccc(NC6CCC(=O)NC6=O)cc5)CC4)CC3)cc2cc1C(=O)Nc1cccc(C(F)(F)F)n1 (stereo not shown)"
  DC50: "100 to 500 nM"
- Molecule: "CC(C)Oc1cc2nn([C@H]3CC[C@H](CN4CCC(c5ccc(OC6CCC(=O)NC6=O)cc5)CC4)CC3)cc2cc1C(=O)Nc1cccn([C@H]2C[C@H]2F)c1=O (stereo partly shown)"
  DC50: "< 10 nM"
- Molecule: "CC(C)Oc1cc2nn(C3CCN(C(=O)CC4(O)CCN(c5ccc(NC6CCC(=O)NC6=O)cc5)CC4)CC3)cc2cc1C(=O)Nc1cccc(C(F)(F)F)n1 (stereo not shown)"
  DC50: "10 to 100 nM"
- Molecule: "CC(C)Oc1cc2nc(C3CCN(CC(=O)N4CCC(c5ccc(NC6CCC(=O)NC6=O)cc5)CC4)CC3)cn2cc1C(=O)Nc1ccccc1 (stereo not shown)"
  DC50: "100 to 500 nM"
- Molecule: "Cc1cnc2c(NC(=O)c3cn4cc([C@H]5CC[C@H](CN6CCC(c7cc(F)c(C8CCC(=O)NC8=O)cc7F)C(F)(F)C6)CC5)nc4cc3OC(C)C)cnn2c1 (stereo partly shown)"
  DC50: "100 to 500 nM"
- Molecule: "CC(C)Oc1cc2nn(C3CCN(C(=O)CC4(O)CCN(c5cc(F)c(C6CCC(=O)NC6=O)cc5F)CC4)CC3)cc2cc1C(=O)Nc1cccc(C(F)F)n1 (stereo not shown)"
  DC50: "< 10 nM"
- Molecule: "CC(C)Oc1cc2nn(C3CCN(C(=O)CC4CCN(c5ncc6c(n5)n(C)c(=O)n6C5CCC(=O)NC5=O)CC4)CC3)cc2cc1C(=O)Nc1cccn([C@H]2C[C@H]2F)c1=O (stereo partly shown)"
  DC50: "< 10 nM"
